assayed.target: KRAS Q61H (Homo sapiens (Human), UniProt P01116+P62937, Q61H)
Sequence (P01116-2 other isoform, or with tags, fused parts or gaps Q61H): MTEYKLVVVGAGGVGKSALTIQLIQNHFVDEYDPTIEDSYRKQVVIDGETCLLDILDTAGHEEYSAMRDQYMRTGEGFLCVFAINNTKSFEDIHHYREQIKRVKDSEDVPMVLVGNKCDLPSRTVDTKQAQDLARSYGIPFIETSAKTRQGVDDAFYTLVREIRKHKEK
Sequence (P62937 whole entry): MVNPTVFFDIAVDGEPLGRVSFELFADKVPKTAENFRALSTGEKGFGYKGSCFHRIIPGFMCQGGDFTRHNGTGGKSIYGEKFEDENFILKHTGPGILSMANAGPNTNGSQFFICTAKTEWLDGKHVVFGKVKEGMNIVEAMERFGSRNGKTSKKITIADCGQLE
protocol.description: Ras-Raf (BRAF RBD) disruption / FRET / MOA assay, KRAS Q61H
Format: biochemical
assay.setup: Ras-Raf disruption/FRET/MOA assay; class symbols; read-out: KRAS Q61H FRET data IC50
pIC50: −log10 of the molar value.
quantity.measured: pIC50

{"columns": ["compound", "quantity.measured", "reported.value"],
 "data": [
  ["C=CC(=O)N1CCC2(CC1)CN(C(=O)N(C)[C@H](C(=O)N[C@H]1Cc3nc(cs3)-c3ccc4c(c3)c(c(-c3cccnc3[C@H](C)OC)n4CC)CC(C)(C)COC(=O)[C@@H]3CCCN(N3)C1=O)C(C)C)C2 (atropisomer, axis not shown) [Example A702]", "pIC50", "7.00 to 8.00"],
  ["C=CC(=O)N1CC2(COCCN2C(=O)N(C)[C@H](C(=O)N[C@H]2Cc3nc(cs3)-c3ccc4c(c3)c(c(-c3cccnc3[C@H](C)OC)n4CC)CC(C)(C)COC(=O)[C@@H]3CCCN(N3)C2=O)C(C)C)C1 (atropisomer, axis not shown) [Example A352]", "pIC50", "5.00 to 6.00"],
  ["C=CC(=O)N1CC(OC[C@H](C(=O)N[C@H]2C[C@H]3CN(CCO3)c3ccc4c(c3)c(c(-c3cccnc3[C@H](C)OC)n4CC(F)(F)F)CC(C)(C)COC(=O)[C@@H]3CCCN(N3)C2=O)C(C)C)C1 (atropisomer, axis not shown) [Example A723]", "pIC50", "5.00 to 6.00"],
  ["C=CC(=O)N1CC[C@H](C(=O)N(C)[C@H](C(=O)N[C@H]2Cc3nc(cs3)-c3ccc4c(n3)c(c(-c3cccnc3[C@H](C)OC)n4CC)CC(C)(C)COC(=O)[C@@H]3CCCN(N3)C2=O)C(C)C)C1 [Example A347]", "pIC50", "5.00 to 6.00"]
]}
